The values you see were collected from ChEMBL document CHEMBL1134954.

In this section we review reported Activity values for a set of compounds.
- Test system: SNB-19
- Protocol Description: Inhibitory activity (500 uM) against Cl-dependent uptake of [3H]L-glutamate (100 uM) into SNB-19 human astrocytoma cells to determine activity at system Xc glutamate/cystine exchanger
- Assay type: functional
- Set-up: scale not given: the % may be the effect or the level left
Measurement Label: Activity (%)

- NC(C(=O)O)[C@@H]1C2C=CC(CC2)[C@H]1C(=O)O (stereo partly specified): 88
- NC(C(=O)O)[C@@H]1C2C=CC(C2)[C@H]1C(=O)O (stereo partly specified): 88
- O=C(O)C1NC(=O)[C@@H]2CC=CC[C@@H]12 (stereo partly specified): 89
- NC(C(=O)O)[C@@H]1CC=CC[C@H]1C(=O)O (stereo partly specified): 101
- CC1=C(C)C[C@@H](C(N)C(=O)O)[C@H](C(=O)O)C1 (stereo partly specified): 104
- CC1=C(C)C[C@H]2C(C(=O)O)NC(=O)[C@@H]2C1 (stereo partly specified): 103

###

- Organism: Rattus norvegicus
- Protocol Description: Inhibitory activity (250 uM) against ATP dependent uptake of [3H]L-glutamate (250 uM) by isolated synaptic vesicles from rat forebrain to quantify activity at vesicular glutamate transporter
- Format: functional
- Set-up: scale not given: the % may be the effect or the level left
Measured Activity of individual entries
Measurement Label: Activity (%)

- NC(C(=O)O)[C@@H]1CC=CC[C@H]1C(=O)O (stereo partly specified): 85
- NC(C(=O)O)[C@@H]1C2C=CC(CC2)[C@H]1C(=O)O (stereo partly specified): 104
- CC1=C(C)C[C@@H](C(N)C(=O)O)[C@H](C(=O)O)C1 (stereo partly specified): 99
- CC1=C(C)C[C@H]2C(C(=O)O)NC(=O)[C@@H]2C1 (stereo partly specified): 96
- O=C(O)C1NC(=O)[C@@H]2CC=CC[C@@H]12 (stereo partly specified): 103
- NC(C(=O)O)[C@@H]1C2C=CC(C2)[C@H]1C(=O)O (stereo partly specified): 93

###

- Species on record: Rattus norvegicus
- Protocol Description: Potential inhibitory activity of EAAT2 by the ability (250 uM) to attenuate the Na-dependent uptake of [3H]D-aspartate (5 uM) into synaptosomes of rat forebrain
- Type: functional
- Parameters: scale not given: the % may be the effect or the level left
- Study Conditions: Brain
Measurement Label: Activity (%)

- NC(C(=O)O)[C@@H]1CC=CC[C@H]1C(=O)O (stereo partly drawn): 38
- CC1=C(C)C[C@H]2C(C(=O)O)NC(=O)[C@@H]2C1 (stereo partly drawn): 77
- CC1=C(C)C[C@@H](C(N)C(=O)O)[C@H](C(=O)O)C1 (stereo partly drawn): 71
- NC(C(=O)O)[C@@H]1C2C=CC(CC2)[C@H]1C(=O)O (stereo partly drawn): 70
- NC(C(=O)O)[C@@H]1C2C=CC(C2)[C@H]1C(=O)O (stereo partly drawn): 35
- O=C(O)C1NC(=O)[C@@H]2CC=CC[C@@H]12 (stereo partly drawn): 53
- CC(C)[C@H]1CN[C@H](C(=O)O)[C@H]1CC(=O)O: 22
- N[C@@H](CCC(=O)O)C(=O)O: 28

###

Recorded Activity, one value per entry.
- Protocol Description: Potential inhibitory activity of EAAT3 by the ability (500 uM) to attenuate the Na-dependent uptake of [3H]D-aspartate (25 uM) into C6 rat glioma cells
- Assay type: functional
- Design: scale not given: the % may be the effect or the level left
Measurement Label: Activity (%)

* NC(C(=O)O)[C@@H]1CC=CC[C@H]1C(=O)O (stereo partly specified) | 95
* CC1=C(C)C[C@@H](C(N)C(=O)O)[C@H](C(=O)O)C1 (stereo partly specified) | 100
* O=C(O)C1NC(=O)[C@@H]2CC=CC[C@@H]12 (stereo partly specified) | 93
* NC(C(=O)O)[C@@H]1C2C=CC(C2)[C@H]1C(=O)O (stereo partly specified) | 87
* NC(C(=O)O)[C@@H]1C2C=CC(CC2)[C@H]1C(=O)O (stereo partly specified) | 97
* CC1=C(C)C[C@H]2C(C(=O)O)NC(=O)[C@@H]2C1 (stereo partly specified) | 97
